# reported log10 Kd; entries follow
# TARGET_SYSTEM: T1, RatNectin4-His (rat, UniProt D3ZET1 31-348)
# T1 construct: Immobilized on the SPR chip; not shown: His tag
# T1 sequence: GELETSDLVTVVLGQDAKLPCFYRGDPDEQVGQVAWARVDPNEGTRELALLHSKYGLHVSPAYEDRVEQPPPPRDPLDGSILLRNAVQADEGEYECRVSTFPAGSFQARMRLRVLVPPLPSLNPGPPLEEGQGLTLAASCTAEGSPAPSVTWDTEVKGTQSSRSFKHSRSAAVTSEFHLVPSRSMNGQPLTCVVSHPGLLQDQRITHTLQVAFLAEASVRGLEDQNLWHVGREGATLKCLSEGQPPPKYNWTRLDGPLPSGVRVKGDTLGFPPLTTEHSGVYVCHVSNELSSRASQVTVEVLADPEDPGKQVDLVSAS
# METHOD_SUMMARY: SPR, RatNectin4-His immobilized, pH 7.4
Kindly note that the scale is log10 and the underlying Kd is in nM.

{"BINDER": "BAP-143-06-33-16 (antibody, V domains shown, Used as a conjugate with a linker payload (CAB ADC)) VH: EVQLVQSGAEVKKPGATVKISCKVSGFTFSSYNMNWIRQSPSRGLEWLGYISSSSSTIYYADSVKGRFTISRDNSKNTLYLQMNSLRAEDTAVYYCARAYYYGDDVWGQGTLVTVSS VL: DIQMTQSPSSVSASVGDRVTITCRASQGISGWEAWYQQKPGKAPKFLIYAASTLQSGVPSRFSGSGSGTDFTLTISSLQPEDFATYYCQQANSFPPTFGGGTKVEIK", "VALUE_MEASURED": 0.29}
{"BINDER": "BAP-143-wildtype (antibody, V domains shown, 150 kDa used in SPR; also called BAP143-00-00; benchmark (BM)) VH: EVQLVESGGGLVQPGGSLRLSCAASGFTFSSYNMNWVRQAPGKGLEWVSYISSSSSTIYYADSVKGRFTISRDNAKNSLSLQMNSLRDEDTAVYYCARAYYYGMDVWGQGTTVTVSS VL: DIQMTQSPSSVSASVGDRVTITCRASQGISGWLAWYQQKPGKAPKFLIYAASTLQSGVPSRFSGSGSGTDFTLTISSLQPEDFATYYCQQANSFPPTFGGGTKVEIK", "VALUE_MEASURED": -0.87}
{"BINDER": "BAP-143-00-01 (antibody, V domains shown, Used as a conjugate with a linker payload (CAB ADC)) VH: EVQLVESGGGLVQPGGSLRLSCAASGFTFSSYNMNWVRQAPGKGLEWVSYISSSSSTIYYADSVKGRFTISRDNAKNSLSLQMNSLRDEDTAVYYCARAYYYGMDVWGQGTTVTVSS VL: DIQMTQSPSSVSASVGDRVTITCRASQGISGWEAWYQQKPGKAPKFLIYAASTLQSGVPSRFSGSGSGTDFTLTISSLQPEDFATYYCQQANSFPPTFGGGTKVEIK", "VALUE_MEASURED": 0.38}
{"BINDER": "BAP-143-07-03-12 (antibody, V domains shown, Used as a conjugate with a linker payload (CAB ADC)) VH: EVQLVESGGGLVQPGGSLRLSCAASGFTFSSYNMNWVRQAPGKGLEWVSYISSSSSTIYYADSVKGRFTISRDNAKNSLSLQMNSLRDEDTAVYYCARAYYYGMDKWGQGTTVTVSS VL: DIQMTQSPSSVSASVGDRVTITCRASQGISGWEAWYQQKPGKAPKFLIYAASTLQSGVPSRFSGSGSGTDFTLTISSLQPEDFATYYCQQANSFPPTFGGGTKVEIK", "VALUE_MEASURED": 0.12}

Alright, here's another binder for you.
Ask: Quick check: log10 Kd of BAP-143-06-24-16 (antibody, V domains shown, Used as a conjugate with a linker payload (CAB ADC)) VH: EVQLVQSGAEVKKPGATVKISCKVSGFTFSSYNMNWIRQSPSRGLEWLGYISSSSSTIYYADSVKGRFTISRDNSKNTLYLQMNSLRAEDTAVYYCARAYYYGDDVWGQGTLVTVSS VL: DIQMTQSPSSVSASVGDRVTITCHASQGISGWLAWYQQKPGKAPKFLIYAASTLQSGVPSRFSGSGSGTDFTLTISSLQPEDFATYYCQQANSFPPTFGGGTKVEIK ?
Result: -0.77
